Property: MIC; scope: individual compounds
- Test system: Penicillium expansum EPS26
- measurement notes: MIC, antifungal growth inhibition in microtiter plates (PDB)
- Format: cell-based
- measurement context: Pe, 22°C, seven days, OD 600 nm, lowest concentration with no growth, given as interval of tested concentrations, three replicates, experiment repeated twice

CCCCCCCCCCCC(=O)NCCCC[C@H](NC(=O)[C@H](Cc1ccccc1)NC(=O)[C@H](CC(C)C)NC(=O)[C@H](CCCCN)NC(=O)[C@H](CCCCN)NC(C)=O)C(=O)N[C@@H](CCCCN)C(=O)N[C@H](C(=O)N[C@@H](CC(C)C)C(=O)N[C@@H](CCCCN)C(=O)N[C@@H](Cc1ccc(O)cc1)C(=O)N[C@@H](CC(C)C)C(N)=O)[C@@H](C)CC ... 12.5 to 25 µM

Now consider the entry below.
Ask: Report value: MIC, system: Penicillium expansum EPS26, compound: CCCCCCCCCCCC(=O)NCCCC[C@H](NC(C)=O)C(=O)N[C@@H](CCCCN)C(=O)N[C@@H](CC(C)C)C(=O)N[C@@H](Cc1ccccc1)C(=O)N[C@@H](CCCCN)C(=O)N[C@@H](CCCCN)C(=O)N[C@H](C(=O)N[C@@H](CC(C)C)C(=O)N[C@@H](CCCCN)C(=O)N[C@@H](Cc1ccc(O)cc1)C(=O)N[C@@H](CC(C)C)C(N)=O)[C@@H](C)CC
Reply: >25 µM
